Where do the numbers come from? From patent EP0974354A1.

Test system: Plasmodium Falciparum W2 Strain (Chloroquine resistant)
assay explanation: In vitro screening against Plasmodium falciparum, radiolabelled hypoxanthine incorporation, W2 strain
Type: cell-based
condition summary: Plasmodium falciparum, W2, 66 h, read-out: In vitro activity: IC90, W2 Strain (Chloroquine resistant); 66 hours incubation; Albumax medium
measured property: log10 IC90 (log10 of the value in ng/mL)
Scale: log10; quantity: IC90; unit before log: ng/mL

The following compounds have reported results that may help.
{"compound": "C[C@H]1[C@@H](Oc2ccnc3ccccc23)O[C@@H]2O[C@@]3(C)CC[C@H]4[C@H](C)CC[C@@H]1[C@@]24OO3", "log10 IC90": 0.81}
{"compound": "C[C@H]1[C@@H](OCc2cccc(F)c2)O[C@@H]2O[C@@]3(C)CC[C@H]4[C@H](C)CC[C@@H]1[C@@]24OO3", "log10 IC90": -0.23}
{"compound": "C[C@H]1[C@@H](OCc2ccccc2F)O[C@@H]2O[C@@]3(C)CC[C@H]4[C@H](C)CC[C@@H]1[C@@]24OO3", "log10 IC90": 0.03}

Input: Checklist item: log10 IC90 tested on Plasmodium Falciparum W2 Strain (Chloroquine resistant), entry `C[C@H]1[C@@H](OCc2ccc(F)cc2)O[C@@H]2O[C@@]3(C)CC[C@H]4[C@H](C)CC[C@@H]1[C@@]24OO3` , value?
Output: -0.07

Input: // next record C[C@H]1[C@H](OCc2cccc3ccccc23)O[C@@H]2O[C@@]3(C)CC[C@H]4[C@H](C)CC[C@@H]1[C@@]24OO3 [11(α-isomer)]
Output: 0.00

Input: Now the same for C[C@H]1[C@@H](OCc2ccc3ccccc3c2)O[C@@H]2O[C@@]3(C)CC[C@H]4[C@H](C)CC[C@@H]1[C@@]24OO3 [3(β-isomer)]
Output: -0.11
